src = paper PMC10993414

EC (induction ratio 1.5) reference
tested on: Nrf2-mediated oxidative stress response pathway (ARE) in AREc32 cells; assay: cells; details: Arec32, 24 h, read-out: Oxidative stress response ECIR1.5 (M)
Dear colleague, please return just the value in M, with no unit written.

{"compound": "CC1=C(C(=O)Nc2ccccc2)SCCO1 [Carboxin]", "uom": "M", "EC (induction ratio 1.5)": 0.00014}

Shift focus to the following entry.
Ask: Endpoint output: EC (induction ratio 1.5) of Oc1c(Cl)c(Cl)c(Cl)c(Cl)c1Cl [Pentachlorophenol] . Value?
Reply: 6.91e-05

###

system: Nrf2-mediated oxidative stress response pathway (ARE) in AREc32 cells; assay: cells; details: Arec32, 24 h, read-out: Oxidative stress response ECIR1.5 (M)
result_type: EC (induction ratio 1.5)

Sample records with EC (induction ratio 1.5):
{"compound": "Oc1c(Cl)cc(Cl)c(Cl)c1Cc1c(O)c(Cl)cc(Cl)c1Cl", "EC (induction ratio 1.5)": "> 9.31e-05 M"}
{"compound": "Cc1ccccc1C(=O)Nc1cccc(OC(C)C)c1", "EC (induction ratio 1.5)": "> 0.000153 M"}
{"compound": "Cc1nc(C(F)(F)F)c(C(=O)Nc2c(Br)cc(OC(F)(F)F)cc2Br)s1 [Thifluzamide]", "EC (induction ratio 1.5)": "> 3.16e-05 M"}
{"compound": "CCCCCc1ccc(O)cc1", "EC (induction ratio 1.5)": "> 0.000385 M"}
{"compound": "N#CC(C#N)=NNc1cccc(Cl)c1", "EC (induction ratio 1.5)": "> 0.000355 M"}
{"compound": "CO/N=C(/C1=NOCCO1)c1ccccc1Oc1ncnc(Oc2ccccc2Cl)c1F", "EC (induction ratio 1.5)": "> 0.000153 M"}
{"compound": "Cc1ccc(-c2c(Cl)nc(C#N)n2S(=O)(=O)N(C)C)cc1", "EC (induction ratio 1.5)": "> 5.41e-05 M"}
{"compound": "COC(=O)N(OC)c1ccccc1COc1ccn(-c2ccc(Cl)cc2)n1", "EC (induction ratio 1.5)": "> 0.000103 M"}
{"compound": "CCc1nn(C)c(C(=O)NCc2ccc(C(C)(C)C)cc2)c1Cl", "EC (induction ratio 1.5)": "> 0.000214 M"}

// below: EC (induction ratio 1.5) requested for another compound
Ask: What does the record list as EC (induction ratio 1.5) for CC(C)Oc1cccc(NC(=O)c2ccccc2C(F)(F)F)c1 ?
Reply: > 0.000226 M
